The measured values listed here are drawn from BindingDB's records for doi:10.1111/cbdd.12822.

Molecular target: Carboxylic ester hydrolase (Equus caballus, UniProt Q9N1N9)
Sequence (Q9N1N9 whole entry): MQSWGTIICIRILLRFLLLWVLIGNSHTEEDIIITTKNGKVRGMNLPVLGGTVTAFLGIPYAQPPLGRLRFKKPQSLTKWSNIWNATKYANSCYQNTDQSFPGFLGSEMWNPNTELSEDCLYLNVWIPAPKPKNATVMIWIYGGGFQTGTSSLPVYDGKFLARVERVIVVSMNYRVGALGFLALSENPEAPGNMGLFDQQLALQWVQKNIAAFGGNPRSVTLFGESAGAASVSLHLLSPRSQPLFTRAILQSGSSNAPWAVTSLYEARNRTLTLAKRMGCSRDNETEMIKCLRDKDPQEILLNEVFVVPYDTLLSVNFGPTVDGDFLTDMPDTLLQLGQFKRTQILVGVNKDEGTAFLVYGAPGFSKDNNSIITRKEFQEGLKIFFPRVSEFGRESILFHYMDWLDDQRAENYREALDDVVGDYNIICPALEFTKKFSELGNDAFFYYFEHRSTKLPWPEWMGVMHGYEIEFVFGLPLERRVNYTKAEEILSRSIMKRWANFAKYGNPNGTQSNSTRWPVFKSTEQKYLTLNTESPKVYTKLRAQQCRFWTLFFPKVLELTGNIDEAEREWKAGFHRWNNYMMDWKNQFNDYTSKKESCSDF
Assign IC50 to each entry below.

IN: For the compound COc1ccc(/C=C2\CCc3ccc(Cl)cc3C2=O)c(Cl)c1OC , what IC50 is on record?
OUT: 56.7 µM

IN: For the compound COc1cc2c(cc1OC)C(=O)/C(=C/c1ccc(OC)c(OC)c1Cl)CC2 , what IC50 is on record?
OUT: > 100 µM

IN: For the compound COc1cc2c(cc1OC)C(=O)/C(=C/c1cc(OC)c(OC)c(OC)c1Br)CC2 , what IC50 is on record?
OUT: > 100 µM

IN: For the compound COc1cccc(/C=C2\CCc3ccc(F)cc3C2=O)c1Cl , what IC50 is on record?
OUT: > 100 µM

IN: For the compound COc1cccc(/C=C2\CCc3ccc(Br)cc3C2=O)c1Cl , what IC50 is on record?
OUT: > 100 µM

IN: For the compound COc1ccc(/C=C2\CCc3ccc(F)cc3C2=O)c(Cl)c1OC , what IC50 is on record?
OUT: > 100 µM

IN: For the compound COc1cccc(/C=C2\CCc3ccc([N+](=O)[O-])cc3C2=O)c1Cl , what IC50 is on record?
OUT: 27.9 µM

IN: For the compound COc1cccc(/C=C2\CC(C)c3ccccc3C2=O)c1Cl (stereo unspecified) , what IC50 is on record?
OUT: 49.9 µM

IN: For the compound COc1cc(/C=C2\CCc3ccc(Br)cc3C2=O)c(Br)c(OC)c1OC , what IC50 is on record?
OUT: > 100 µM

IN: For the compound COc1ccc2c(c1)CC/C(=C\c1cc(OC)c(OC)c(OC)c1Br)C2=O , what IC50 is on record?
OUT: 17.5 µM

IN: For the compound COc1ccc2c(c1)CC/C(=C\c1cccc(OC)c1Cl)C2=O , what IC50 is on record?
OUT: > 100 µM

====

Target chain: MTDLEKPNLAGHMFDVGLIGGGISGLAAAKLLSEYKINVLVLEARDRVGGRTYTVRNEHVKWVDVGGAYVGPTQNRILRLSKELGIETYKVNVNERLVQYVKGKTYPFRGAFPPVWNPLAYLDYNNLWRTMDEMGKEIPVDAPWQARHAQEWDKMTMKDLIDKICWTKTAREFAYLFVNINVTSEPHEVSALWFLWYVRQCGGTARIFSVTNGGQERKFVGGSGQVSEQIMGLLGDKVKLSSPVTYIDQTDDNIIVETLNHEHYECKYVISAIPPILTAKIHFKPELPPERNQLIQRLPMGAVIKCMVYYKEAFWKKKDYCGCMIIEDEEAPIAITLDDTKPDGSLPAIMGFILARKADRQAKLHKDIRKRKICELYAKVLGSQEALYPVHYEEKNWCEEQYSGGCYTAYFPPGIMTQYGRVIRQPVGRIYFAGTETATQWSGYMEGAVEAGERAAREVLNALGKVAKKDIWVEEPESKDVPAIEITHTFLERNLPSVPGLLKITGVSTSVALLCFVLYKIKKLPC
Assign IC50 to each entry below.

IN: For the molecule COc1cccc(/C=C2\CCc3c(O)cccc3C2=O)c1Cl , what IC50 is on record?
OUT: > 100 µM

IN: For the molecule COc1cccc(/C=C2\CCc3ccc(Br)cc3C2=O)c1Cl , what IC50 is on record?
OUT: > 100 µM

IN: For the molecule COc1cc(/C=C2\CCc3ccc(Br)cc3C2=O)c(Br)c(OC)c1OC , what IC50 is on record?
OUT: > 100 µM

IN: For the molecule COc1ccc(/C=C2\CCc3c(O)cccc3C2=O)c(Cl)c1OC , what IC50 is on record?
OUT: > 100 µM

====

Assign pIC50 to each entry below.
pIC50: −log10 of the molar value.

IN: State its pIC50 on UniProtKB O42275: COc1cccc(/C=C2\CCc3ccc(Br)cc3C2=O)c1Cl
Sequence (O42275 whole entry): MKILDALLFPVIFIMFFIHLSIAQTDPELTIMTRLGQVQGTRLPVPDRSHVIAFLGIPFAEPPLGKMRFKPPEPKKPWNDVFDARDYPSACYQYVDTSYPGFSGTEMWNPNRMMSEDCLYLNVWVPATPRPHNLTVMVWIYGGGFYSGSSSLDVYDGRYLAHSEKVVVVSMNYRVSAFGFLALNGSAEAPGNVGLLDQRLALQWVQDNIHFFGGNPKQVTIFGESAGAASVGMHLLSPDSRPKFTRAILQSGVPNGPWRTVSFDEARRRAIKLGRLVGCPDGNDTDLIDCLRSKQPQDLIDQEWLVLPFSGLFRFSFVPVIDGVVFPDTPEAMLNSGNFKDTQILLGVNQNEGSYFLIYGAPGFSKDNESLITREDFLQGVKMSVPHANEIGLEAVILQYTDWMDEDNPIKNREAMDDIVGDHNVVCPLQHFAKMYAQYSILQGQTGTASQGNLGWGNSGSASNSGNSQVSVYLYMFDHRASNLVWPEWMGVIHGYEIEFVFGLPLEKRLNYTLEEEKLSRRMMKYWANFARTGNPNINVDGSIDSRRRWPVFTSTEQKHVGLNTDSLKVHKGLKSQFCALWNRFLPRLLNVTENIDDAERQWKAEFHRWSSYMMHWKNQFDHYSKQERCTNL
OUT: < 4.00

IN: State its pIC50 on UniProtKB O42275: COc1cc(/C=C2\CCc3ccc(Br)cc3C2=O)c(Br)c(OC)c1OC
OUT: < 4.00

IN: State its pIC50 on UniProtKB O42275: COc1cccc(/C=C2\CCc3ccc(F)cc3C2=O)c1Cl
OUT: < 4.00
